Kindly state 42 h skin conc for each of the entries shown.
# System: human abdominal skin
# EXPERIMENT_NOTES: In vitro human skin permeation and skin disposition, flow-through diffusion cells (Examples 2, 2A, 2B)
# Type: in vitro ADME
# PARTICULARS: Table 16; 90:8:2 PG:H2O:IPM donor solution, 60/40 Hanks'/PEG 400 receiver fluid; as applied compound (CBD or intact prodrug)
Give bare numbers, in µmol/g.

// below: answered molecules
Lab entry: human abdominal skin assay, molecule C=C(C)C1CCC(C)=CC1c1c(O)cc(CCCCC)cc1OC(=O)COCCOCCOC (stereo not shown) [ALL00140, CBD 2-[2-(2-methoxyethoxy)ethoxy]acetate] , 42 h skin conc = 12.7

Lab entry: human abdominal skin assay, molecule C=C(C)[C@@H]1CCC(C)=C[C@H]1c1c(O)cc(CCCCC)cc1O [cannabidiol, reference compound] , 42 h skin conc = 19.0

Lab entry: human abdominal skin assay, molecule C=C(C)[C@@H]1CCC(C)=C[C@H]1c1c(O)cc(CCCCC)cc1OC(=O)COCCOCCOCCOC [ALL00131, CBD 3,6,9,12-tetraoxatridecanoate] , 42 h skin conc = 12.5

Next:
Lab entry: human abdominal skin assay, molecule C=C(C)[C@@H]1CCC(C)=C[C@H]1c1c(OC(=O)COCCOCCOCCOC)cc(CCCCC)cc1OC(=O)COCCOCCOCCOC [ALL00132, CBD di(3,6,9,12-tetraoxatridecanoate)] , 42 h skin conc = 2.9

###

# Tested on: human abdominal skin
# EXPERIMENT_NOTES: In vitro human skin permeation and skin disposition, flow-through diffusion cells (Examples 2, 2A, 2B)
# Type: in vitro ADME
# PARTICULARS: in donor solution
READOUT_KIND: lag time compared to cannabidiol

Given item C=C(C)[C@@H]1CCC(C)=C[C@H]1c1c(OC(=O)COCCOCCOCCOC)cc(CCCCC)cc1OC(=O)COCCOCCOCCOC [ALL00132, CBD di(3,6,9,12-tetraoxatridecanoate)] , the value recorded as its lag time compared to cannabidiol is wasn't decreased

Given item C=C(C)C1CCC(C)=CC1c1c(OC(=O)CN(C)C)cc(CCCCC)cc1OC(=O)CN(C)C (stereo not drawn) [ALL00105, CBD bis(N,N-dimethylglycinate)] , the value recorded as its lag time compared to cannabidiol is not decreased

Given item C=C(C)[C@@H]1CCC(C)=C[C@H]1c1c(OC(=O)CO)cc(CCCCC)cc1OC(=O)CO [ALL00147, CBD Diglycolate] , the value recorded as its lag time compared to cannabidiol is not decreased

Given item C=C(C)[C@@H]1CCC(C)=C[C@H]1c1c(OC=O)cc(CCCCC)cc1OC=O [ALL00145, CBD Diformate] , the value recorded as its lag time compared to cannabidiol is wasn't decreased

###

# EXPERIMENT_NOTES: Plasma stability of cannabidiol prodrugs (bioconversion to parent drug)
# Format: in vitro ADME
# PARTICULARS: Table 20; di-prodrug in plasma; 0 h
READOUT_KIND: % Di-prodrug at time (h) (%)
Numbers only, in %.

Given item C=C(C)[C@@H]1CCC(C)=C[C@H]1c1c(OC(=O)OC)cc(CCCCC)cc1OC(=O)OC [ALL00143, CBD Bis(Methyl Carbonate)] , the value recorded as its % Di-prodrug at time (h) is 100

Given item C=C(C)C1CCC(C)=CC1c1c(OC(=O)CN(C)C)cc(CCCCC)cc1OC(=O)CN(C)C (centres unmarked) [ALL00105, CBD bis(N,N-dimethylglycinate)] , the value recorded as its % Di-prodrug at time (h) is 100

Given item C=C(C)[C@@H]1CCC(C)=C[C@H]1c1c(OC=O)cc(CCCCC)cc1OC=O [ALL00145, CBD Diformate] , the value recorded as its % Di-prodrug at time (h) is 60

Quick one: give me % Di-prodrug at time (h) for each item below, same order please.
1. C=C(C)[C@@H]1CCC(C)=C[C@H]1c1c(OC(=O)CO)cc(CCCCC)cc1OC(=O)CO [ALL00147, CBD Diglycolate]
2. C=C(C)C1CCC(C)=CC1c1c(OC(=O)COCCOCCOC)cc(CCCCC)cc1OC(=O)COCCOCCOC (centres unmarked) [ALL00141]
3. C=C(C)[C@@H]1CCC(C)=C[C@H]1c1c(OC(=O)CCN(C)C)cc(CCCCC)cc1OC(=O)CCN(C)C [ALL00101, CBD bis(3-(dimethylamino)propionate)]
4. C=C(C)[C@@H]1CCC(C)=C[C@H]1c1c(OC(=O)COCCOCCOCCOC)cc(CCCCC)cc1OC(=O)COCCOCCOCCOC [ALL00132, CBD di(3,6,9,12-tetraoxatridecanoate)]
5. C=C(C)[C@@H]1CCC(C)=C[C@H]1c1c(OC(C)=O)cc(CCCCC)cc1OC(C)=O [ALL00142, CBD Diacetate]

[out]
1: 100; 2: 98; 3: 100; 4: 100; 5: 100

###

# EXPERIMENT_NOTES: Plasma stability of cannabidiol prodrugs (bioconversion to parent drug)
# Format: in vitro ADME
# PARTICULARS: Table 20; di-prodrug in plasma; 2 h
Kindly state % Di-prodrug at time (h) for each of the entries shown.
One number for each entry, in %.

// below: answered molecules
Given item C=C(C)[C@@H]1CCC(C)=C[C@H]1c1c(OC(=O)CO)cc(CCCCC)cc1OC(=O)CO [ALL00147, CBD Diglycolate] , the value recorded as its % Di-prodrug at time (h) is 32

Given item C=C(C)C1CCC(C)=CC1c1c(OC(=O)COCCOCCOC)cc(CCCCC)cc1OC(=O)COCCOCCOC (stereo not shown) [ALL00141] , the value recorded as its % Di-prodrug at time (h) is 71

Given item C=C(C)C1CCC(C)=CC1c1c(OC(=O)CN(C)C)cc(CCCCC)cc1OC(=O)CN(C)C (stereo not shown) [ALL00105, CBD bis(N,N-dimethylglycinate)] , the value recorded as its % Di-prodrug at time (h) is 92

Next:
Given item C=C(C)[C@@H]1CCC(C)=C[C@H]1c1c(OC(=O)COCCOCCOCCOC)cc(CCCCC)cc1OC(=O)COCCOCCOCCOC [ALL00132, CBD di(3,6,9,12-tetraoxatridecanoate)] , the value recorded as its % Di-prodrug at time (h) is 15

###

# Test system: human abdominal skin
# EXPERIMENT_NOTES: In vitro human skin permeation and skin disposition, flow-through diffusion cells (Examples 2, 2A, 2B)
# Format: in vitro ADME
# PARTICULARS: Table 19; gel formulation, 40% aqueous PEG 400 receiver fluid; as applied compound (CBD or intact prodrug)
Where a name gives a salt, the structure may show the parent alone.
READOUT_KIND: 24 h skin conc (µmol/g)
One number for each entry, in µmol/g.

// below: answered compounds
Given item C=C(C)[C@@H]1CCC(C)=C[C@H]1c1c(OC(=O)CCN(C)C)cc(CCCCC)cc1OC(=O)CCN(C)C [ALL00101, CBD bis(3-(dimethylamino)propionate)] , the value recorded as its 24 h skin conc is 0.8

Given item C=C(C)[C@@H]1CCC(C)=C[C@H]1c1c(O)cc(CCCCC)cc1OC=O [ALL00146, CBD Formate] , the value recorded as its 24 h skin conc is 3.3

Given item C=C(C)[C@@H]1CCC(C)=C[C@H]1c1c(O)cc(CCCCC)cc1O [cannabidiol, reference compound] , the value recorded as its 24 h skin conc is 9.0

Next item in the queue.
Given item C=C(C)C1CCC(C)=CC1c1c(O)cc(CCCCC)cc1OC(=O)CN(C)C (stereo not shown) [ALL00148, CBD N,N-dimethylglycinate] , the value recorded as its 24 h skin conc is 20.8

###

# System: human abdominal skin
# EXPERIMENT_NOTES: In vitro human skin permeation and skin disposition, flow-through diffusion cells (Examples 2, 2A, 2B)
# Assay type: in vitro ADME
# PARTICULARS: in donor solution
READOUT_KIND: total skin concentrations compared to cannabidiol

Lab entry: human abdominal skin assay, molecule C=C(C)[C@@H]1CCC(C)=C[C@H]1c1c(OC(=O)OC)cc(CCCCC)cc1OC(=O)OC [ALL00143, CBD Bis(Methyl Carbonate)] , total skin concentrations compared to cannabidiol = not higher

Lab entry: human abdominal skin assay, molecule C=C(C)[C@@H]1CCC(C)=C[C@H]1c1c(O)cc(CCCCC)cc1OC(=O)COCCOCCOCCOC [ALL00131, CBD 3,6,9,12-tetraoxatridecanoate] , total skin concentrations compared to cannabidiol = not higher

Lab entry: human abdominal skin assay, molecule C=C(C)[C@@H]1CCC(C)=C[C@H]1c1c(OC(=O)CO)cc(CCCCC)cc1OC(=O)CO [ALL00147, CBD Diglycolate] , total skin concentrations compared to cannabidiol = not higher

Lab entry: human abdominal skin assay, molecule C=C(C)[C@@H]1CCC(C)=C[C@H]1c1c(OC(=O)COCCOCCOCCOC)cc(CCCCC)cc1OC(=O)COCCOCCOCCOC [ALL00132, CBD di(3,6,9,12-tetraoxatridecanoate)] , total skin concentrations compared to cannabidiol = not higher

Lab entry: human abdominal skin assay, molecule C=C(C)C1CCC(C)=CC1c1c(OC(=O)CN(C)C)cc(CCCCC)cc1OC(=O)CN(C)C (stereo not drawn) [ALL00105, CBD bis(N,N-dimethylglycinate)] , total skin concentrations compared to cannabidiol = higher

Lab entry: human abdominal skin assay, molecule C=C(C)C1CCC(C)=CC1c1c(O)cc(CCCCC)cc1OC(=O)COCCOCCOC (stereo not drawn) [ALL00140, CBD 2-[2-(2-methoxyethoxy)ethoxy]acetate] , total skin concentrations compared to cannabidiol = not higher

Quick one: give me total skin concentrations compared to cannabidiol for each item below, same order please.
1. C=C(C)[C@@H]1CCC(C)=C[C@H]1c1c(OC(C)=O)cc(CCCCC)cc1OC(C)=O [ALL00142, CBD Diacetate]
2. C=C(C)[C@@H]1CCC(C)=C[C@H]1c1c(O)cc(CCCCC)cc1OC(=O)[C@@H](O)CO [ALL00137, CBD (S)-2,3-dihydroxypropanoate]
3. C=C(C)[C@@H]1CCC(C)=C[C@H]1c1c(OC=O)cc(CCCCC)cc1OC=O [ALL00145, CBD Diformate]

[out]
1. not higher
2. not higher
3. higher
